Data credit: PubChem BioAssay (NCI)

# assay.procedure: NCI Yeast Anticancer Drug Screen. Data for the rad50 strain (AID 155);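 further: 0% = growth of vehicle-only cultures of the same strain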
# test.context: S. cerevisiae rad50 strain growth inhibition; at 5.0 µM (retest, dose inferred, filed as 0.5); hits give high values
This is part of a sample that, as a whole, favours compounds with a hit. Of some 79,000 tested, about 15% had one in any assay.
assay.endpoint: growth inhibition (%)
Give bare numbers, in %.

Example entries and their recorded answers appear below.
C[C@H](CCC(=O)O)[C@H]1CC[C@H]2[C@@H]3CC[C@@H]4C[C@H](O)CC[C@]4(C)[C@H]3C[C@H](O)[C@]12C    -14
C=CCc1cc(C(=O)OCC)cc(OC)c1O    78
CC[C@]1(O)C[C@H]2[C@@H]3CCc4cc(OC)ccc4[C@H]3CC[C@]2(C)[C@H]1O    -3
O=P(N=P(c1ccccc1)(c1ccccc1)c1ccccc1)(c1ccccc1)c1ccccc1    70
Oc1ccc(CCCCCc2ccc(O)cc2)cc1    4
CS(=O)(=O)c1cc(=O)c2ccccc2s1    6
O=C1c2ccccc2C(=O)[C@@]23O[C@@]12C1(Oc2cccc4cccc(c24)O1)[C@@H]1O[C@@H]1[C@@H]3O    79
NC(=O)c1cccn1Cc1ccccc1SSc1ccccc1Cn1cccc1C(N)=O    32

Record growth inhibition per entry; entries follow.
1. O=C(CSc1nnc(Cc2ccccc2)o1)Nc1cccc(Cl)c1
2. CCCCCN(CCCCC)C(=S)Nc1ccccc1
3. CCC(=NCCCCCCN=C(CC)c1cc(C)cc([N+](=O)[O-])c1O)c1cc(C)cc([N+](=O)[O-])c1O.[Fe]

-20
-36
10

###

# assay.procedure: NCI Yeast Anticancer Drug Screen. Data for the sgs1 mgt1 strain (AID 161);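 further: 0% = growth of cultures given vehicle only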
# test.context: S. cerevisiae sgs1 mgt1 strain, at 50.0 µM (retest, dose inferred, filed as 5.0)
Compounds without any hit were thinned out: in the full panel of roughly 79,000, 15% have a hit. Calls of active or inactive are those of the source. Cut-off read from the data, not from the text of the source: active = growth inhibition above about 70%; inactive = the rest.
API: response.call in active, inactive

The examples below pair each entry with its known result.
NC(=O)c1ccccc1C(=O)O    inactive
[N-]=[N+]=Nc1c([N+](=O)[O-])c(Cl)nc2ccccc12    active
O=[N+]([O-])c1ccc(NC(=S)N/N=C(\c2ccccc2)c2ccccn2)cc1    active

Lab note: next molecule to report on.
For "COc1ccc(/C=N/n2c(C)nc3c(sc(=S)n3-c3ccccc3)c2=O)cc1" , which call appears in the assay record?
inactive

###

# assay.procedure: NCI Yeast Anticancer Drug Screen. Data for the mec2-1 strain (AID 157)
# test.context: S. cerevisiae mec2-1 strain, at 5.0 µM (retest, dose inferred, filed as 0.5)
About 79,000 compounds went through this panel and 15% of them were active in at least one assay; those are over-represented in the sample as a whole. Activity calls are given as the source filed them. No stated cut-off is given here; in the data, active means growth inhibition above about 70%; inactive means the rest.
Can you answer with just one of these options? active, inactive

# example entries with known answers
C=C1C(=O)[C@@]23CC[C@H]4[C@@](C)(CCC[C@@]4(C)C(=O)OC)[C@@H]2CC[C@]1(O)C3    active
NNC(=S)N/N=C(\CC1OC(=O)c2ccccc21)c1ccccc1O (stereo unspecified)    inactive
O=C1CSC(=S)N1Cc1ccccc1Cl    inactive
CC(C)(C[NH-])C[NH-].[Cl][Pt+2]([Cl])([Cl])[Cl]    active
Cc1ccc(C(=O)/C=C/c2ccccc2)cc1    inactive

// param item: CCOC(=O)C(F)C(Br)C(=O)OCC (stereo unspecified) ; yields the recorded call
inactive

Now the same for "O=c1cc2cccccc-2cc1O"
inactive

Try "CCOc1nc(N)nc(C)c1N=Nc1ccc(Cl)cc1Cl" next.
inactive

Query CCC(C)COC(=O)c1ccc([N+](=O)[O-])cc1 (stereo unspecified) next
inactive

Same read-out for "CCCCCCCCCCCCNCc1ccc2c(c1)OCO2" ?
active

Try this compound next: CCOC(=O)C(=O)CC1=Nc2ccccc2SC(c2cccc(C)c2)C1 (stereo unspecified)
inactive

###

# assay.procedure: NCI Yeast Anticancer Drug Screen. Data for the mlh1 rad18 strain (AID 175)
# test.context: S. cerevisiae mlh1 rad18 strain growth inhibition; at 5.0 µM (retest, dose inferred, filed as 0.5); hits give high values
About 79,000 compounds went through this panel and 15% of them were active in at least one assay; those are over-represented in the sample as a whole.
assay.endpoint: growth inhibition (%)
Give bare numbers, in %.

CC1CC(C)CC(C(O)(C(=O)O)C2CC(C)CC(C)C2)C1 (centres undefined)    18
Cc1ccc(/C=N/NS(=O)(=O)c2ccccc2)c(C)c1    -11
Sc1c(Br)cc(Br)cc1Br.[Ag]    19

For each entry beneath this line, provide reported growth inhibition.
1. S=C(Nc1ccccc1)NC1CC2C=CC1CC2 (centres undefined)
2. O=[N+]([O-])c1cccc2c1[nH]c1c(-c3ccccc3)nccc12
3. Cc1c(Cl)c(S(N)(=O)=O)cc2c1NC=NS2(=O)=O
4. CCN1CCNc2c3cc(OC)ccc3nc3c([N+](=O)[O-])ccc1c23
5. CCS(=O)(=O)c1ccc(NC(=O)OC2CCCCCCC2)cc1

[-4, 0, -3, -41, 6]

Items follow; give growth inhibition for each.
1. OCCC1CCN(CC/C=C2/c3ccc(F)cc3Sc3ccc(C(F)(F)F)cc32)CC1
2. O=C(/C=C/c1ccccc1)CCN1CCC2CCC(C2)C1 (centres undefined)
3. S=c1[nH]c(-c2ccccc2)cs1
4. CCCCc1ccc2nccc(N/N=C/c3ccc(OC)c4ccccc34)c2c1
5. COc1ccc(Cc2c(-c3ccc(C)cc3)n[nH]c(=O)c2C2C(=O)N(c3ccccc3)N=C2c2ccccc2)cc1 (centres undefined)
6. CCCCCCCCCCCCCCCCCC[n+]1ccc(C(C)CC)cc1 (centres undefined)
7. CNC(=O)OC1/C(C)=C\C(C)C(O)C(OC)CC(C)CC2=C(OC)C(=O)C=C(C2=O)N(C)C(=O)/C(C)=C/C=C\C1OC (centres undefined)
8. CCCCN(CCCC)CCC(=O)c1ccc2c(ccc3ccccc32)c1

24
8
1
1
47
6
-3
12

Count: 4. Required value per item: growth inhibition.
1. CCC(C)COC(=O)c1ccc([N+](=O)[O-])cc1 (centres undefined)
2. O=c1c(Cl)c(Cl)c(=O)c2sc3cc(Cl)ccc3[nH]c1=2
3. C/C=C(\CCC1NCCc2c1[nH]c1ccccc21)[Si](C)(C)C (centres undefined)
4. Cc1cc2oc3c(ccc(=O)n3C)c(=O)c2c(C)c1Cl

1: -4; 2: 2; 3: -21; 4: 11

Provide the reported growth inhibition of each entry below, same order.
1. COc1cc(CSc2ccc(O)cc2)cc(OC)c1OC
2. CCOC(=O)Nc1cc2c(cn1)[nH]c1ccccc12
3. CC1Cc2ccc3c(c2C(c2ccc4c(c2)OCO4)C1C)OCO3 (centres undefined)
4. C/C(=N/NC(N)=S)C(CN(C)C)C(C1=C(O)c2ccccc2OC1)c1ccccc1 (centres undefined)

1. -5
2. 5
3. -11
4. 0

###

# assay.procedure: NCI Yeast Anticancer Drug Screen. Data for the mlh1 rad18 strain (AID 175)
# test.context: S. cerevisiae mlh1 rad18 strain growth inhibition; at 50.0 µM (retest, dose inferred, filed as 5.0)
The panel holds about 79,000 compounds, 15% with a hit somewhere; the sample as a whole holds those more often. Calls of active or inactive are those of the source. Cut-off read from the data, not from the text of the source: active = growth inhibition above about 70%; inactive = the rest.
// allowed return values: Yes = active, No = inactive

Below are worked cases with known answers.
O=S1Nc2ccccc2S1 (stereo not drawn)    No
O=C(Nc1ccc(F)c(Cl)c1)Oc1ccc(Br)cc1Br    Yes
CCCCCCCCCCCCCCCCCCNCCCCCCCCCCCCCCCC    No

Entry OC(C(=Nc1ccccc1)c1ccccc1)c1ccccc1 (stereo not drawn) : call = ?
Yes

Next compound: "CC(=O)Oc1cccc2c1C(=O)C(Br)(Br)CCC2"
Yes

Lookup "C(=C\c1cnnc2ccccc12)/c1ccco1"
No

Try "Cc1ccc(C)c(C(=O)/C=C/C(=O)O)c1" next.
Yes

Continue with "Cc1ccc(C(CN)(CCBr)c2ccc(C)cc2)cc1"
Yes

Same read-out for CC(=O)OC1CC2Cc3ccccc3C3(O)COC213 (stereo not drawn) ?
Yes

Record: CC(C)(CCCCC(C)(C)NCC1COc2ccccc2O1)NCC1COc2ccccc2O1 (stereo not drawn)
Yes

Thanks! And CCN(CC)CC(O)CNc1ccc(NCC(O)CCl)c2c1C(=O)c1ccccc1C2=O (stereo not drawn) ?
Yes

Now give it for "CN(C)CCCC(=O)OCC[N+](C)(C)C" too.
No

Note, next up: "CCN(CC)c1cccc(OC(=O)Nc2cccc(C(F)(F)F)c2)c1"
Yes

Queued: "CCOc1ccccc1C(=O)Nc1cc(C)nn1-c1ccccc1"
No

Another: CC1=CC2OC3CC4OC(=O)/C=C/C=C/C(C(C)O)OCC(=O)C(C)CC(=O)OCC2(CC1)C4(C)C31CO1 (stereo not drawn)
Yes

Likewise for "Cc1cc(C)[nH]c(=S)n1.[Pt]" ?
No

Subsequent entry: "CSc1cc(Cl)c(C)cc1S(=O)(=O)NC(=O)Nc1ccc(Cl)cc1"
Yes

Thanks! And NC(C(=O)O)C1=CCCCCC1 (stereo not drawn) ?
No

// same read-out, input: "COc1ccc(-c2noc(=O)c3ccccc23)cc1"
No

Likewise for "O=C1C(=O)c2ccccc2C(O)=C1C(c1ccccc1)c1ccccc1" ?
Yes

Now consider CS(C)=O.[Cl-].[Cl-].[NH-]CC(O)CN(Cc1ccccc1)CC(O)CN.[Pt] (stereo not drawn) and answer again.
No
